Target: Neprilysin (Rattus norvegicus)
Sequence (P07861 whole entry): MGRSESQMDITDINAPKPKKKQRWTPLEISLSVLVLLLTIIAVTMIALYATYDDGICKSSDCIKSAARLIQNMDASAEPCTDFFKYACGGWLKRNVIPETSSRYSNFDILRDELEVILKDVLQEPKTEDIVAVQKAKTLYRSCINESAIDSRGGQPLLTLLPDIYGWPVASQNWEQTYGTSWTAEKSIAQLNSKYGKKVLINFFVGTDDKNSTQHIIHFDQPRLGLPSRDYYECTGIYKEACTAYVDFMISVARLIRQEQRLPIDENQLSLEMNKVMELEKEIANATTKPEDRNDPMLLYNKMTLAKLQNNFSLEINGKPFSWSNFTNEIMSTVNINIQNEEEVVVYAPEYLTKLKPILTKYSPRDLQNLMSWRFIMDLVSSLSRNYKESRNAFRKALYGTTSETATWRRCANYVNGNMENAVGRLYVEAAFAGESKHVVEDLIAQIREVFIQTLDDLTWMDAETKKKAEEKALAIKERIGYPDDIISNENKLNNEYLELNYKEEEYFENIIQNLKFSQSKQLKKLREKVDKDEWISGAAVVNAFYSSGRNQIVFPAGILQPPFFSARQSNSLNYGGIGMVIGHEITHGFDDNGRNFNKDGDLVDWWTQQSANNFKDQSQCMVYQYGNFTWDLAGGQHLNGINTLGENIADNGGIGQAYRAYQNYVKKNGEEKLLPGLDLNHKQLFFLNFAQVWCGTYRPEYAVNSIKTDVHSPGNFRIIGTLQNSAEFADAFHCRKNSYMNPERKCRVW
Test: In vitro inhibition of enkephalinase purified from […].
Exam item: assign label 1 to entries whose IC50 is below 400 nM and label 0 to entries at or above 400 nM. Note that a value of exactly 400 nM receives label 0.

1. O=CN(O)C(Cc1ccccc1)C(=O)NCC(=O)O (centres undefined)	label 0
2. CC(C)CCNC(=O)CNC(=O)C(CC(=O)NO)Cc1ccccc1 (centres undefined)	label 0
3. COC(=O)CNC(=O)C(Cc1ccccc1)C(=O)NO (centres undefined)	label 1
4. O=CN(O)CC(Cc1ccccc1)C(=O)NCC(=O)NCc1ccccc1 (centres undefined)	label 0
5. CC(C)CCNC(=O)CNC(=O)C(Cc1ccccc1)C(=O)NO (centres undefined)	label 0
6. O=C(CNC(=O)C(Cc1ccccc1)C(=O)NO)NCc1ccccc1 (centres undefined)	label 0
7. O=C(O)CNC(=O)C(CC(=O)O)Cc1ccccc1 (centres undefined)	label 0
8. O=C(O)CNC(=O)C(Cc1ccccc1)C(=O)O (centres undefined)	label 0
9. O=CN(O)CC(Cc1ccccc1)C(=O)NCC(=O)O (centres undefined)	label 1
10. COC(=O)CNC(=O)C(Cc1ccccc1)CN(O)C=O (centres undefined)	label 1
11. CC(C)CCNC(=O)CNC(=O)C(Cc1ccccc1)CN(O)C=O (centres undefined)	label 0
12. CC(C)CCNC(=O)CNC(=O)C(Cc1ccccc1)N(O)C=O (centres undefined)	label 1
13. CC(NC(=O)C(CC(=O)NO)Cc1ccccc1)C(=O)O (centres undefined)	label 1

====

assay: Inhibitory activity against rat brain Dipeptidyl aminopeptidase using 10 nM of [3H]Leu-enkephalin as substrate
pIC50: −log10 of the molar value.
Form field: pIC50 (one value per entry).
recordedEndpoint: pIC50

1) O=C(O)CNC(=O)C(CC(=O)NO)Cc1ccccc1 (stereo not given)	7.68
2) O=C(O)CNC(=O)C(Cc1ccccc1)C(=O)NO (stereo not given)	5.46
3) O=CN(O)C(Cc1ccccc1)C(=O)NCC(=O)O (stereo not given)	3.63
4) CC(NC(=O)C(CC(=O)NO)Cc1ccccc1)C(=O)O (stereo not given)	8.68
5) O=CN(O)CC(Cc1ccccc1)C(=O)NCC(=O)O (stereo not given)	6.52
